Attribute: protein stability index
B1: PPFIA4 (parent)
chain: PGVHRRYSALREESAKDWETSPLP

# Variants of: B1
# protocol summary: protein stability index of a GFP-peptide fusion (GPS, HEK-293T) (PSI 1-6); higher = more stable;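 also: lentivirally expressed fusions sorted by FACS into six bins by GFP to DsRed ratio, PSI derived from sequencing read proportions per bin multiplied by bin number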
# condition info: c terminus: a fixed tail appended
No unit in the answer, only the number.

// below: answered variants
PGVHRRYSALREESLKDWETSPLP [A15L] = 4.12
PGVHPRYSALREESAKDWETSPLP [R5P] = 4.54
PGVHRRYSALYEESAKDWETSPLP [R11Y] = 3.79
PGVHHRYSALREESAKDWETSPLP [R5H] = 4.27
PGVHRRYSALREESAKDWEMSPLP [T20M] = 4.37

Query :: Which protein stability index is reported for this variant? PGVHRRYSALREEVAKDWETSPLP [S14V]
Result :: 3.92

Query :: Please report the recorded protein stability index for VGVHRRYSALREESAKDWETSPLP [P1V] .
Result :: 3.74

Query :: For the variant PGVHRRYSALRWESAKDWETSPLP [E12W] , what protein stability index is on record?
Result :: 3.11

Data origin, for the record: the supplement of paper PMC10567573
